tested on: IGROV1 ovarian; experiment: NCI-60 one-dose screen, 48 h; settings: 10 µM unless noted
Compounds without any hit were thinned out: in the full panel of roughly 83,000, 20% have a hit. Activity calls are given as the source filed them. Rule for the calls: active = growth percent below 10; inactive = the rest.
Outcomes: active, inactive

>  <chemical-string>
COc1ccccc1NC(=O)OCC12COCN1COC2

>  <cat>
inactive

$$$$
>  <chemical-string>
O=C(/C=C/c1ccccc1)n1c(-c2ccccc2)nc2ccccc21

>  <cat>
inactive

$$$$
>  <chemical-string>
O=C(OCc1ccc2c(Br)cc(Br)c(O)c2n1)c1cc2ccccc2[nH]1

>  <cat>
active

$$$$
>  <chemical-string>
CCCCn1c(C)nc2ccc(Nc3nc(Cl)nc4nc[nH]c34)cc21

>  <cat>
inactive

$$$$
>  <chemical-string>
COc1cc(CN2CCO[C@H](COc3cccc(F)c3)C2)ccc1Cl

>  <cat>
inactive

$$$$
>  <chemical-string>
Cc1ccc2oc(=O)cc(-c3nc4ccc([N+](=O)[O-])cc4[nH]3)c2c1

>  <cat>
inactive

$$$$
